measured-target: PDE2 (Homo sapiens, UniProt O00408)
Construct: PDE2 was isolated from human platelets, provided by Etablissement Français du Sang-Alsace; tissue Etablissement Français du Sang-Alsace; host or cells: human platelets
Sequence (O00408 whole entry): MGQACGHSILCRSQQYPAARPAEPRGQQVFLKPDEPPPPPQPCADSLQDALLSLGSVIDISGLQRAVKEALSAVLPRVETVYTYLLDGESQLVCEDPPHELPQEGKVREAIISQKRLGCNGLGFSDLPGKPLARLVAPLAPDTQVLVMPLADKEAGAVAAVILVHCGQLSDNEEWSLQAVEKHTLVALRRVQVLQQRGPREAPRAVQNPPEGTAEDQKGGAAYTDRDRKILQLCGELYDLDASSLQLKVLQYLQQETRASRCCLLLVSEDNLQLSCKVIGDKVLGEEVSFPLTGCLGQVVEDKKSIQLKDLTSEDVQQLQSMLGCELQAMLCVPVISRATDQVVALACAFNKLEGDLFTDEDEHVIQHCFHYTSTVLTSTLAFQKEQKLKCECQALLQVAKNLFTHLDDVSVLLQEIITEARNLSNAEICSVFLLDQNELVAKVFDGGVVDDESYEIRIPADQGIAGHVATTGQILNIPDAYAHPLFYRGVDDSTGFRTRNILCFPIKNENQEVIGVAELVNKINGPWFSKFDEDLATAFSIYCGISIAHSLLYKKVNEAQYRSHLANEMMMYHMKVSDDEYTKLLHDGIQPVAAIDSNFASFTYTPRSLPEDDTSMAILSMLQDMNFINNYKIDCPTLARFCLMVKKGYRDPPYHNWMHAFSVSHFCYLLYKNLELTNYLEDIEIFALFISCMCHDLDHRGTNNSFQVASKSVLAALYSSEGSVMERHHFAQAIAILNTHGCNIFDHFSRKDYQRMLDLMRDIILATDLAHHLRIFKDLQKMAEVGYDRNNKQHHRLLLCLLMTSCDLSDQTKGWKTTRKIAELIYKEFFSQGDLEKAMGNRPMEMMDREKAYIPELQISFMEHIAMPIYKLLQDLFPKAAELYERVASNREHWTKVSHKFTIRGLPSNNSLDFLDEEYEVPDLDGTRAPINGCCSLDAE
experiment-description: Inhibition of PDE2 (radioenzymatic phosphodiesterase assay)
Type: biochemical
condition-label: read-out: PDE2 percentage inhibition at 10 μM, Table 1; 10 μM compound; 1 μM cyclic AMP
Record form. Attribute: inhibition at 10 µM. Fill in for each entry.
Report as a plain number; the unit % is understood.

## Task Consider the molecule CCCN1C(=O)CN=C(c2cccc(C(N)=O)c2)c2c1cc(OC)c(-c1ccccc1)c2OC [Compound 22] and give its measured inhibition at 10 µM.
## Result 16

## Task // inhibition at 10 µM lookup, key: CCCN1C(=O)CN=C(c2cccc(C#N)c2)c2c1cc(OC)c(-c1ccccc1)c2OC [Compound 12]
## Result 17

## Task Return reported inhibition at 10 µM; argument: COc1cc2c(c(OC)c1-c1ccccc1)C(c1cccc(C#CCNC(=O)OC(C)(C)C)c1)=NCC(=O)N2C [Compound 28]
## Result 43

## Task Form field: reported inhibition at 10 µM of CCN1C(=O)CN=C(c2cccc(C(N)=O)c2)c2c1cc(OC)c(-c1ccccc1)c2OC [Compound 21]
## Result 31

## Task # lookup: inhibition at 10 µM of COc1cc2c(c(OC)c1-c1ccccc1)C(c1cccc(CCCN)c1)=NCC(=O)N2C [Compound 32]
## Result 22

## Task # query: inhibition at 10 µM of entry COc1cc2c(c(OC)c1-c1ccccc1)C(c1cccc(C#N)c1)=NCC(=O)N2CCCc1ccccc1 [Compound 16]
## Result 18

## Task Endpoint output: inhibition at 10 µM of COc1cc2c(c(OC)c1-c1ccccc1)C(c1cccc(C(N)=O)c1)=NCC(=O)N2CC1CC1 [Compound 23] . Value?
## Result 15

## Task Recorded inhibition at 10 µM for COc1cc2c(c(OC)c1-c1ccccc1)C(c1cccc(C(N)=O)c1)=NCC(=O)N2Cc1ccc(C(F)(F)F)cc1 [Compound 25] , please?
## Result 18

## Task Can you share its inhibition at 10 µM? I mean this molecule: COc1cc2c(c(OC)c1-c1ccccc1)C(c1cccc(C#N)c1)=NCC(=O)N2Cc1ccc(C(F)(F)F)cc1 [Compound 15]
## Result 9

## Task Quick one: inhibition at 10 µM of COc1cc2c(c(OC)c1-c1ccccc1)C(c1cccc(C#N)c1)=NCC(=O)N2 [Compound 1] ?
## Result 9

## Task Value lookup for inhibition at 10 µM; key = COc1cc2c(c(OC)c1-c1ccccc1)C(c1cccc(C#N)c1)=NCC(=O)N2CC1CC1 [Compound 13]
## Result 20

## Task inhibition at 10 µM lookup needed for COc1cc2c(c(OC)c1-c1ccccc1)C(c1cccc(C(N)=O)c1)=NCC(=O)N2CCCc1ccccc1 [Compound 26] , thanks.
## Result 5

## Task Field request: inhibition at 10 µM | item: CCN1C(=O)CN=C(c2cccc(C#N)c2)c2c1cc(OC)c(-c1ccccc1)c2OC [Compound 11]
## Result 10

## Task Look up inhibition at 10 µM: COCC#Cc1cccc(C2=NCC(=O)N(C)c3cc(OC)c(-c4ccccc4)c(OC)c32)c1 [Compound 27]
## Result 83
